Read-out: Bcl-2 (BAX) gene, BAX (gene 581)
Test: LTEA_HepaRG_BAX: Life Technologies and Expression Analysis (LTEA) Assay for Bcl-2 (BAX) gene using HepaRG (AID 2283470)
Conditions: mRNA level, 48 h; actives raise or lower the signal
Calls of active or inactive are those of the source. How the source made its calls: active means hit-call score of the fitted dose curve at least 0.9, where 1 is the maximum; inactive means score below 0.9.
Hi! Could you answer with just one of these? active, inactive

Lab log entry: CC(COCC(C)OC(=O)c1ccccc1)OC(=O)c1ccccc1 (stereo not given) — outcome as called in the assay?
inactive

Lab log entry: C/C=C/C=C/C(=O)O — outcome as called in the assay?
inactive

Lab log entry: CCC(C)N(C)C(=O)c1cc2ccccc2c(-c2ccccc2Cl)n1 (stereo not given) — outcome as called in the assay?
inactive

Lab log entry: CN(C)CCCN(C)CCCN(C)C — outcome as called in the assay?
inactive

Lab log entry: CCN(CC)CCOc1ccc(C(=C(Cl)c2ccccc2)c2ccccc2)cc1 — outcome as called in the assay?
inactive

Lab log entry: O=[Si]=O — outcome as called in the assay?
inactive

Lab log entry: C#CC(O)C(CC)CCCC (stereo not given) — outcome as called in the assay?
inactive

Lab log entry: Cc1ccc(-c2cc(C(F)(F)F)nn2-c2ccc(S(N)(=O)=O)cc2)cc1 — outcome as called in the assay?
inactive

Lab log entry: N[C@@H](Cc1c[nH]c2ccccc12)C(=O)O — outcome as called in the assay?
inactive

Lab log entry: CCCCC(CC)CO (stereo not given) — outcome as called in the assay?
inactive

Lab log entry: COC(=O)CCCC(=O)OC — outcome as called in the assay?
inactive

Lab log entry: CCc1nc(N)nc(N)c1-c1ccc(Cl)cc1 — outcome as called in the assay?
inactive

Lab log entry: CC(=O)OCC(COC(C)=O)OC(C)=O — outcome as called in the assay?
inactive

Lab log entry: O=C(O)CN(CC(=O)O)CC(=O)O — outcome as called in the assay?
inactive

Lab log entry: Nc1nc(=S)c2[nH]cnc2[nH]1 — outcome as called in the assay?
active

Lab log entry: c1ccc2occc2c1 — outcome as called in the assay?
inactive

Lab log entry: Cc1cc(Cc2ccc(N)c(C)c2)ccc1N — outcome as called in the assay?
inactive

Lab log entry: COC(=O)CCC(=O)OC — outcome as called in the assay?
inactive

Lab log entry: CSc1ccc(Oc2ccc(S(N)(=O)=O)cc2CN(C)C)cc1C — outcome as called in the assay?
inactive

Lab log entry: O=C1CCCCC1 — outcome as called in the assay?
inactive

Lab log entry: CC(=O)O — outcome as called in the assay?
inactive

Lab log entry: CCCCCCCC(=O)OC — outcome as called in the assay?
inactive

Lab log entry: O=C(O)c1cccnc1 — outcome as called in the assay?
inactive

Lab log entry: Cc1cn([C@H]2C=C[C@@H](CO)O2)c(=O)[nH]c1=O — outcome as called in the assay?
inactive

Lab log entry: CC1(C)C(=O)NC(=O)N1CO — outcome as called in the assay?
inactive

Lab log entry: NC=O — outcome as called in the assay?
inactive

Lab log entry: C=CCCCCCCCCCCCC — outcome as called in the assay?
inactive

Lab log entry: Cc1cc(SC2=C(O)C[C@@](CCc3ccc(N)cc3)(C(C)C)OC2=O)c(C(C)(C)C)cc1CO — outcome as called in the assay?
inactive

Lab log entry: CC(C)c1cccc(C(C)C)c1 — outcome as called in the assay?
inactive

Lab log entry: NC(=Nc1ccccc1)Nc1ccccc1 — outcome as called in the assay?
inactive

###

Read-out: Matrix Metallopeptidase 1 (MMP1), MMP1 (gene 4312)
Experiment: BSK_hDFCGF_MMP1: BioMAP Diversity Plus: hDFCGF Assay for Matrix Metallopeptidase 1 (MMP1) Biomarker Activity (AID 2283064)
Settings: primary human foreskin fibroblasts; actives raise or lower the signal
The source made the active and inactive calls. How the source made its calls: active means hit-call score of the fitted dose curve at least 0.9, where 1 is the maximum; inactive means score below 0.9.
Hi! Could you answer with just one of these? TRUE (active), FALSE (inactive)

Lab log entry: CCCC[C@H]1CN(CC2CCOCC2)C(=O)OC12CCN(C1(C)CCN(C(=O)c3c(C)ncnc3C)CC1)CC2 — outcome as called in the assay?
FALSE

Lab log entry: CCCCCCCC(=O)OC — outcome as called in the assay?
FALSE

Lab log entry: CCCCCCCCCCCCCCOS(=O)(=O)O — outcome as called in the assay?
TRUE

Lab log entry: CC(C)(O)c1ccc(CNC(=O)c2cccnc2Oc2ccc(F)cc2)cc1 — outcome as called in the assay?
FALSE

Lab log entry: CCCCOC(=O)CCCCC(=O)OCCCC — outcome as called in the assay?
FALSE

Lab log entry: NC=O — outcome as called in the assay?
FALSE

Lab log entry: O=C(Oc1ccccc1)c1cccc(C(=O)Oc2ccccc2)c1 — outcome as called in the assay?
FALSE

Lab log entry: O=C1c2c(O)cccc2Cc2cccc(O)c21 — outcome as called in the assay?
FALSE

Lab log entry: c1ccc2occc2c1 — outcome as called in the assay?
FALSE

Lab log entry: CCCCC(CC)CO (stereo unspecified) — outcome as called in the assay?
FALSE

Lab log entry: CC(=O)CC(c1ccccc1)c1c(O)c2ccccc2oc1=O (stereo unspecified) — outcome as called in the assay?
FALSE

Lab log entry: C/C=C/c1ccc(OC)cc1 — outcome as called in the assay?
FALSE

Lab log entry: CC(C)(C)c1ccccc1 — outcome as called in the assay?
FALSE

Lab log entry: OCC(O)CO — outcome as called in the assay?
FALSE

Lab log entry: O=C(O)c1[nH]n(-c2ccc(S(=O)(=O)O)cc2)c(=O)c1N=Nc1ccc(S(=O)(=O)O)cc1 — outcome as called in the assay?
FALSE

Lab log entry: O=Cc1ccccc1C=O — outcome as called in the assay?
FALSE

###

Test: CCTE_Shafer_MEA_acute_network_burst_percentage: CCTE's Neural Acute Assay for Percentage of Network Bursts, Shafer Lab (AID 2284022);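 further: curves fitted for loss so actives lower network burst percentage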;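 on outcome: rat primary cortical neuron networks on multiwell MEA recorded 40 min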
Active and inactive are the calls of the source. The calls were made as follows: active = hit-call score of the fitted dose curve at least 0.9, where 1 is the maximum; inactive = score below 0.9.
Hi! Could you answer with just one of these? active, inactive

Lab log entry: CN(C)C(=O)NC1(c2ccccc2)CCN(CCC[C@]2(c3ccc(Cl)c(Cl)c3)CCCN(C(=O)c3ccccc3)C2)CC1 — outcome as called in the assay?
active

Lab log entry: Nc1nc(=S)c2[nH]cnc2[nH]1 — outcome as called in the assay?
inactive

Lab log entry: CCN(CC)CCOc1ccc(C(=C(Cl)c2ccccc2)c2ccccc2)cc1 — outcome as called in the assay?
inactive

###

Read-out: Transforming Growth Factor (TGFB1), TGFB1 (gene 7040)
Experiment: LTEA_HepaRG_TGFB1: Life Technologies and Expression Analysis (LTEA) Assay for Transforming Growth Factor (TGFB1) Transporter using HepaRG (AID 2283533)
Conditions: mRNA level, 48 h; actives raise or lower the signal
Calls of active or inactive are those of the source. The calls were made as follows: active = hit-call score of the fitted dose curve at least 0.9, where 1 is the maximum; inactive = score below 0.9.
Hi! Could you answer with just one of these? Yes = active, No = inactive

Lab log entry: CCOCCOCCO — outcome as called in the assay?
No

Lab log entry: Cn1cnc2c1c(=O)[nH]c(=O)n2C — outcome as called in the assay?
No

Lab log entry: CCC(C)N(C)C(=O)c1cc2ccccc2c(-c2ccccc2Cl)n1 (stereo unspecified) — outcome as called in the assay?
No

Lab log entry: O=C(N[C@@H](c1ccccc1)[C@@H]1CCCCN1)c1cccc(C(F)(F)F)c1Cl — outcome as called in the assay?
Yes

Lab log entry: CSc1ccc(Oc2ccc(S(N)(=O)=O)cc2CN(C)C)cc1C — outcome as called in the assay?
No

Lab log entry: COC(=O)[C@H]1[C@H]2C[C@@H]3c4[nH]c5cc(OC)ccc5c4CCN3C[C@H]2C[C@@H](OC(=O)c2cc(OC)c(OC)c(OC)c2)[C@@H]1OC — outcome as called in the assay?
No

Lab log entry: CCCC[C@H]1CN(CC2CCOCC2)C(=O)OC12CCN(C1(C)CCN(C(=O)c3c(C)ncnc3C)CC1)CC2 — outcome as called in the assay?
No

Lab log entry: CCc1cc(C2=C(C(=O)O)N(c3ccccc3C(F)(F)F)S(=O)(=O)c3ccccc32)cc2c1OCO2 — outcome as called in the assay?
No

Lab log entry: CC(C)c1cccc(C(C)C)c1 — outcome as called in the assay?
No

Lab log entry: CCCCCCCCCC[N+](C)(C)[O-] — outcome as called in the assay?
No

Lab log entry: O=C1CCCCC1 — outcome as called in the assay?
No

Lab log entry: CCCCC(CC)CO (stereo unspecified) — outcome as called in the assay?
No

Lab log entry: O=C(O)CN(CC(=O)O)CC(=O)O — outcome as called in the assay?
No

Lab log entry: CN(C)C(=O)NC1(c2ccccc2)CCN(CCC[C@]2(c3ccc(Cl)c(Cl)c3)CCCN(C(=O)c3ccccc3)C2)CC1 — outcome as called in the assay?
Yes

Lab log entry: Cc1ccc(C(C)(C)C)c(O)c1 — outcome as called in the assay?
No

Lab log entry: NCCOCCOCCN — outcome as called in the assay?
No

Lab log entry: CN(C)CCCN1c2ccccc2Sc2ccc(Cl)cc21 — outcome as called in the assay?
Yes

Lab log entry: O=C(O)c1[nH]n(-c2ccc(S(=O)(=O)O)cc2)c(=O)c1N=Nc1ccc(S(=O)(=O)O)cc1 — outcome as called in the assay?
No

Lab log entry: C/C=C/C=C/C(=O)O — outcome as called in the assay?
No

Lab log entry: CC(COCC(C)OC(=O)c1ccccc1)OC(=O)c1ccccc1 (stereo unspecified) — outcome as called in the assay?
No

Lab log entry: O=[Si]=O — outcome as called in the assay?
No

Lab log entry: CS(=O)(=O)c1ccc([C@@H](C[C@H]2CCC(=O)C2)C(=O)Nc2cnccn2)cc1Cl — outcome as called in the assay?
Yes

Lab log entry: O=NO — outcome as called in the assay?
No

Lab log entry: COc1ccc(OC(F)(F)F)cc1CN[C@H]1CCCN[C@H]1c1ccccc1 — outcome as called in the assay?
No

Lab log entry: COc1ccc(C(=O)Nc2nc3ccccc3c(NCc3ccccc3)c2C#N)cc1 — outcome as called in the assay?
Yes

Lab log entry: Cc1c(C)c2c(c(C)c1O)CCC(C)(COc1ccc(CC3SC(=O)NC3=O)cc1)O2 (stereo unspecified) — outcome as called in the assay?
Yes

Lab log entry: O=C1OC(c2ccc(O)cc2)(c2ccc(O)cc2)c2ccccc21 — outcome as called in the assay?
No

Lab log entry: Cc1cc(Cc2ccc(N)c(C)c2)ccc1N — outcome as called in the assay?
No

Lab log entry: Cc1cn([C@H]2C=C[C@@H](CO)O2)c(=O)[nH]c1=O — outcome as called in the assay?
No

Lab log entry: Oc1ccccc1O — outcome as called in the assay?
No

Lab log entry: CC(=O)OCC(COC(C)=O)OC(C)=O — outcome as called in the assay?
No

Lab log entry: CC(=O)O[C@]1(C(C)=O)CC[C@H]2[C@@H]3C=C(Cl)C4=CC(=O)[C@@H]5C[C@@H]5[C@]4(C)[C@H]3CC[C@@]21C — outcome as called in the assay?
No

Lab log entry: CC(C)c1cccc(C(C)C)c1NC(=O)NS(=O)(=O)c1cc(C(C)(C)O)co1 — outcome as called in the assay?
No

Lab log entry: CCCCCCCC(=O)OC — outcome as called in the assay?
No

Lab log entry: CC(C)NCC(O)c1ccc(O)c(O)c1 (stereo unspecified) — outcome as called in the assay?
No

Lab log entry: CCN(CC)CCOc1ccc(C(=C(Cl)c2ccccc2)c2ccccc2)cc1 — outcome as called in the assay?
Yes

Lab log entry: NC1CCCCC1 — outcome as called in the assay?
No

Lab log entry: CC(=O)OC1CC(C)OC(C)O1 (stereo unspecified) — outcome as called in the assay?
No

Lab log entry: CCCCCCCCCCCCCCOS(=O)(=O)O — outcome as called in the assay?
No

Lab log entry: O=C(Oc1ccccc1)c1cccc(C(=O)Oc2ccccc2)c1 — outcome as called in the assay?
No

Lab log entry: C/C=C/c1ccc(OC)cc1 — outcome as called in the assay?
No
